- Applied Conditions: buffer; pH 7.4; 200.0 µM
Property: solubility kinetic (µg/mL)

1. Cc1cc(NC(=O)NC(=O)c2ccccc2F)no1    3
2. COc1ccc(Oc2ncnc3sccc23)cc1    14.9
3. Cc1cc(OCC(=O)OCC(=O)Nc2cc(S(=O)(=O)N3CCOCC3)ccc2Cl)ccc1Cl    16.2
4. COc1ccc(N2CCC(CNC(=O)Nc3ccccc3)C2)cc1 (stereo unspecified)    14.8

---

Catalogue of molecules with associated solubility kinetic
- Applied Conditions: buffer; pH 7.4; 200.0 µM
Property: solubility kinetic

1. COc1ccc(NC(=O)Nc2ccc(F)cc2)cn1    > 39.2 µg/mL
2. CCOc1ccc(NC(=O)NCCCCc2ccccc2)cc1    0.4 µg/mL
3. COc1ccc(OC)c(NC(=O)COC(=O)/C=C/c2ccco2)c1    10.4 µg/mL
4. O=C(NCCCN1CCOCC1)c1ccc(Cl)cc1[N+](=O)[O-]    49.1 µg/mL
5. COc1ccc(OCC(O)CN2CCCC2)cc1 (centres undefined)    30.7 µg/mL
6. NC(=O)C1CCCN(C(=O)CNC(=O)C23CC4CC(CC(C4)C2)C3)C1 (centres undefined)    38.3 µg/mL
7. CCN1CCN(c2ccc(NC(=O)c3cccc(S(=O)(=O)N4CCCC4)c3)cc2)CC1    63.2 µg/mL
8. COc1ccc(CNC(=O)CSCc2c(F)cccc2Cl)cc1    5.5 µg/mL
9. O=C1OC(N2C(=O)CC[C@H]2C(=O)Nc2ccc3c(c2)OCO3)c2ccccc21 (some centres undefined)    > 57.1 µg/mL
10. O=C(COC(=O)c1ccc(Cl)nc1)NCc1cccs1    25.2 µg/mL
11. CCOc1ccc(S(=O)(=O)N2CCCCC2)cc1NC(=O)c1cccnc1OCC    1.2 µg/mL
12. CN(c1ccccc1)c1nc(N)c([N+](=O)[O-])c(N2CCOCC2)n1    47.6 µg/mL
13. CCN1CCN(C(=S)NC(=O)/C=C/c2cccs2)CC1    44.8 µg/mL
14. O=C1CCc2ccc(NC(=O)C3CC3)cc2N1    > 34.5 µg/mL
15. COc1ccc(CCNC(=O)C2Cc3ccccc3C(=O)O2)cc1 (centres undefined)    > 48.8 µg/mL
16. CCN(C(=O)CSc1nc2ccccc2[nH]1)C1CCS(=O)(=O)C1 (centres undefined)    > 53 µg/mL
17. COc1ccc(CN2CCCCCC2)cc1Br    43.3 µg/mL
18. CC(C)c1ccc(OCC(=O)NC2=NCCS2)cc1    15.8 µg/mL
19. CC(c1ccccc1)N1C(=O)c2cccnc2C1=O (centres undefined)    32.6 µg/mL
20. CCOC(=O)/C(C#N)=C/c1cccc(F)c1    28.6 µg/mL
21. COc1ccc(NC(=O)CC(C)CC(=O)NCc2ccccc2)c(OC)c1 (centres undefined)    5 µg/mL
22. CCC(=O)N(Cc1cc(=O)[nH]c2ccccc12)c1ccc(C)cc1C    43.9 µg/mL
23. Cc1ccc(C)c(NC(=S)N2CCC(NC(=O)c3ccco3)CC2)c1    45.4 µg/mL
24. Cc1ccnc(NC(=O)c2ccc3[nH]c(=O)c(=O)[nH]c3c2)c1    2.2 µg/mL

---

- Applied Conditions: buffer; pH 7.4; 200.0 µM
Property: solubility kinetic (µg/mL)

1. COc1ccc(S(=O)(=O)N2CCc3ccccc3C2)cc1    0.7
2. CC1CCCN(CC(O)COc2ccc(-c3ccccc3)cc2)C1 (stereo unspecified)    44.4
3. COc1ccccc1/C=C(\C#N)C(=O)c1cccn1C    9.7
4. NC(=O)C1CCCN(Cc2ccc3ccccc3c2)C1 (stereo unspecified)    29.2
5. Cc1ccc(OCCn2cnc3c2c(=O)n(C)c(=O)n3C)cc1    6.3
6. CC1(C)CC(CCN)(Cc2ccccc2Cl)CCO1 (stereo unspecified)    37.7
7. CCCNS(=O)(=O)c1cc2c3c(c1)C(C)C(=O)N3CCC2 (stereo unspecified)    40.3
8. CC1(C)Cc2nc3sc4c(SCC(=O)O)ncnc4c3cc2CO1    53.2
9. CC(C)(C)NC(=O)NC(=O)CN1CCc2ccccc21    27.5
10. S=C(NCc1ccncc1)Nc1cc(Cl)cc(Cl)c1    5.6
11. CC(=O)c1ccc(NC(=O)c2cc3ccccc3o2)cc1    1
12. Cc1ccc(C)c(NC(=O)NCCN2CCCCC2)c1    35.6
13. CCOc1ncccc1C(=O)OCC(=O)NC(=O)NC(C)C    44.6
14. N#Cc1cc(N)ccc1-n1cccc1    27.2

---

- Applied Conditions: buffer; pH 7.4; 200.0 µM
Catalogue of compounds with associated log10 solubility kinetic
Property: log10 solubility kinetic (log10 of the value in µg/mL)

1. CSc1ccccc1C(=O)NCCSc1ccc(C)cc1    1.24
2. Cc1ccc2c(c1)CCCN2C(=O)CSc1ccccc1    1.29
3. CCCCOc1ncnc2c1[nH]c1ccc(C)cc12    -0.22
4. Cc1cc(C)c2[nH]c(C(=O)Nc3ccc4c(c3)OCO4)cc2c1    0.34
5. COc1ccc(-c2cc(C(=O)N3CCCC3)no2)cc1OC    1.64
6. COc1cc(C)c(NC(=O)Cc2ccsc2)cc1OC    1.63
7. O=C(Nc1ccc(Nc2ccccc2)cc1)c1ccccc1    0.20
8. COc1ccc(Nc2cc(C)c3ccccc3n2)cc1    1.10
9. CCOc1cc(N2CCOCC2)c(OCC)cc1NC(=O)COC(=O)c1c(CC)noc1C    0.85
10. CC(Oc1ccc(C#N)cc1)C(=O)c1ccc(F)c(F)c1 (stereo not given)    1.51
11. CSc1ccc(CN2CCCN(C)CC2)cc1    1.34
12. O=C(CSc1ncccn1)Nc1ccc2c(c1)CCC2    1.58
13. CC(=O)c1ccc(N2CCN(C(=O)c3ccc4[nH]c(C)c(C)c4c3)CC2)cc1    0.20
14. O=C(CSc1cccs1)Nc1ccc(Cl)cc1    1.56

---

- Applied Conditions: buffer; pH 7.4; 200.0 µM
Catalogue of compounds with associated solubility kinetic
Property: solubility kinetic (µg/mL)

1. COc1ccc(NS(=O)(=O)c2cc(NC(=O)c3cncc(Br)c3)ccc2OC)cc1    21.9
2. COCc1c(C(=O)N2CCc3ccccc32)oc2ccccc12    7.6
3. Cc1cc(NC(=O)c2ccc(Cl)cc2Cl)no1    3.5
4. COc1cc(C(=O)Nc2cc(C)ccc2C)ccc1OCc1c(C)noc1C    7.1
5. CCCCOc1cccc(C(=O)Nc2ccccc2N2CCCC2)c1    1.2
6. Cc1cccc(OCCCN2CCOCC2)c1    28

---

- Applied Conditions: buffer; pH 7.4; 200.0 µM
Property: solubility kinetic (µg/mL)

1) Cc1cccc(Cc2c(C)[nH]c(=O)c(C#N)c2C)c1    5.5
2) O=C(COC(=O)c1ccc2c(c1)OCCO2)NCc1ccccc1Cl    5.2
3) Clc1ccc(C(c2ccccc2)N2CCN(c3ccccn3)CC2)cc1 (stereo not given)    0.9
4) CCC(C)c1ccc(NC(=S)NC(C)C2CCCO2)cc1 (stereo not given)    31.2
5) Cc1cccc(OCC(=O)OCC(=O)Nc2sccc2C(N)=O)c1    44.2
6) Cc1ccc(C)c(-c2csc(NC(=O)c3c(C)noc3C)n2)c1    2.1
7) Cc1ccnc(NC(=O)Cc2ccc(-c3ccccc3)cc2)c1    4.3
8) Cc1ccc(S(=O)(=O)N2CCN(c3ncnc4scc(-c5ccccc5)c34)CC2)cc1    0.9
9) COc1ccccc1Nc1nc(N)nc(CCl)n1    35.4
10) CS(=O)(=O)c1ccc(C(=O)OCC(=O)NC(=O)C2COc3ccccc3O2)cc1[N+](=O)[O-] (stereo not given)    39.2
11) Cc1cccc2c(N=O)c(O)n(CCc3ccccc3)c12    0.4

---

Catalogue of compounds with associated solubility kinetic
- Applied Conditions: buffer; pH 7.4; 200.0 µM
Property: solubility kinetic (µg/mL)

1. O=C1CN(C(=O)COc2ccc(Br)cc2)c2ccccc2N1    10.3
2. CC(C)CCNc1nc2ccccc2nc1NS(=O)(=O)c1cccs1    7.3
3. N#Cc1cnc(Sc2ccccc2)nc1    26
4. Cc1cccc(C)c1NC(=S)NCCSc1ccc(Cl)cc1    3.3

---

Catalogue of compounds with associated solubility kinetic
- Applied Conditions: buffer; pH 7.4; 200.0 µM
Property: solubility kinetic (µg/mL)

1. COCCN(C(=O)COC(=O)Cc1c(C)nc2ccccc2c1C)c1c(N)n(CC(C)C)c(=O)[nH]c1=O    64.2
2. COc1ccc(COC(=O)CN2C(=O)NC3(CC(C)CC(C)(C)C3)C2=O)cc1F (stereo not given)    5.1
3. CCOc1cc(OCC)cc(C(=O)NCc2ccco2)c1    5.5
4. O=C1c2ccccc2S(=O)(=O)N1Cc1ccccc1[N+](=O)[O-]    0.7
5. CC1Cc2ccccc2N1CC(=O)NC(=O)NC(C)(C)C (stereo not given)    30.7
6. O=C(CN1CCCC1)Nc1c(Cl)cccc1Cl    36.9
7. O=C(Oc1ccc(Oc2ccccc2)cc1)N1CCC(O)CC1    34.9
8. O=c1c2ccccc2ncn1CCOc1ccccc1[N+](=O)[O-]    3.2
9. Cc1ccc(C)c(CNC(=O)Nc2ccccc2)c1    0.8
10. N#CCn1c(CN2CCCC2)nc2ccccc2c1=O    38.6
11. Cc1ccc(O)c(CNc2nccs2)c1    7.4
12. CCCc1nc(SCC(=O)NC2CC2)c2c(C)c(C)sc2n1    0.8
13. N/C(CC(=O)Nc1ccc(F)c(Cl)c1)=N\OC(=O)c1cccs1    2.4
14. CC(=O)c1ccc(NS(=O)(=O)c2ccc3c(c2)CCC(=O)N3)cc1    48.3
